Assay: Rat pharmacokinetics (intraperitoneal or oral dosing)
Assay type: in vivo
Details: single 30 mg/kg oral dose, plasma
quantity_name: Cmax (µM)

1. O=C(c1ccc(F)c(F)c1)N1CCN2C(=O)c3ccccc3[C@@]12c1ccc(Cl)cc1	4.7

###

Experiment: Rat pharmacokinetics (intraperitoneal or oral dosing)
Assay type: in vivo
Details: brain and plasma, ip, 20 mg/kg i.p., 24 h timepoint, read-out: brain-to-plasma ratio
quantity_name: Kp at 24 h

1) O=C(c1ccc(F)c(F)c1)N1CCN2C(=O)c3ccccc3[C@@]12c1ccc(Cl)cc1	3

###

Assay: Rat pharmacokinetics (intraperitoneal or oral dosing)
Format: in vivo
Settings: single 30 mg/kg oral dose, plasma
quantity_name: Tmax (h)

1) O=C(c1ccc(F)c(F)c1)N1CCN2C(=O)c3ccccc3[C@@]12c1ccc(Cl)cc1 [ML375]	7
